src = the Biogen ADME set (Fang et al. 2023)

Listed below: fraction unbound, human plasma values for each entry.
Give your answer as a number; write no unit.

Consider the worked cases shown below.
CCn1c(-c2nonc2N)nc2cnc(Oc3cccc(NC(=O)c4ccc(OCCN5CCOCC5)cc4)c3)cc21 = 0.00355
CC(O)(C#Cc1ccc2c(c1)N(c1nc(N)ncc1Cl)CC2)c1nccs1 (stereo not given) = 0.00754
COCCNC(=O)c1ccnc(C2CCNCC2)c1 = 1

(Q) State the recorded fraction unbound, human plasma for this entry: O=C(Nc1ccc2ccccc2n1)c1ccc(N2CCOC2=O)cc1
(A) 0.0281

(Q) State the recorded fraction unbound, human plasma for this entry: COc1ccc(CCCN2CCN(c3cnn(C)c3)C(=O)C2)cc1F
(A) 0.221

(Q) State the recorded fraction unbound, human plasma for this entry: NC(=O)c1cnc(N2CCc3[nH]nc(C(F)(F)F)c3C2)c(Cl)c1
(A) 0.0968

(Q) State the recorded fraction unbound, human plasma for this entry: O=S(=O)(c1cccc2c(O)nccc12)N1CCCNCC1
(A) 0.708

(Q) State the recorded fraction unbound, human plasma for this entry: CCS(=O)(=O)N1CC(CC#N)(n2cc(-c3ncnc4[nH]ccc34)cn2)C1
(A) 0.239

(Q) State the recorded fraction unbound, human plasma for this entry: C#C[C@@](C)(CC)NC(=O)c1cc(F)cnc1NC1CC(F)(F)C1
(A) 0.0469

(Q) State the recorded fraction unbound, human plasma for this entry: C=CC(=O)Nc1cccc(Oc2nc(Nc3ccc(N4CCN(C)CC4)cc3)nc3ccsc23)c1
(A) 0.00892

###

conditions: pH 6.8
Tick y if aqueous solubility is 20 µg/mL or greater. Tick n if aqueous solubility is less than 20 µg/mL.

// known answers, use as guide
CC(=O)Nc1ccc(C(=O)N2CCc3ncncc3C2)cc1 = y
CCCNC(=O)Nc1ccc(Oc2ncnc3cc(OC)c(OC)cc23)cc1Cl = n
c1ccc(OCc2nc3cc4ccccc4cc3[nH]2)cc1 = n
CCn1c(SC)nnc1C1CCN(C)CC1 = y
CCOC(=S)SCC(=O)Nc1nc(-c2ccc(C3CCCCC3)cc2)cs1 = n

(Q) Assess whether reported aqueous solubility for CN(C)c1ncn(-c2cccc(N)c2)n1 sits at 20 µg/mL or higher.
(A) y

(Q) Assess whether reported aqueous solubility for Nc1ccnn1Cc1ccc(Cl)c(F)c1 sits at 20 µg/mL or higher.
(A) y

(Q) Assess whether reported aqueous solubility for Nc1nnc(-c2ccc3c(c2)OCCO3)o1 sits at 20 µg/mL or higher.
(A) y

###

Tick label 1 if intrinsic clearance, rat liver microsomes is 300 mL/min/kg or greater. Tick label 0 if intrinsic clearance, rat liver microsomes is less than 300 mL/min/kg.

// known answers, use as guide
Cc1nc2cc(=O)[nH]n2c(C)c1CC(=O)OC1CCCCC1 = label 1
CCOc1cc2nn(CCC(C)(C)O)cc2cc1NC(=O)c1cccc(C(F)F)n1 = label 0
Cc1ccc(-c2ccnc(O)c2C#N)cc1 = label 0
CCc1cnc(CCNc2cncc(Cl)n2)s1 = label 1
COCCc1noc(CN(C)C(=O)c2ccc3c(c2)CCC3)n1 = label 0
Cc1ccc(-c2nc(CN3CCOCC3)n(Cc3ccc(F)cc3)n2)o1 = label 1
CNC(=O)c1ccccc1Nc1nc(Nc2ccc(N3CCOCC3)cc2OC)ncc1Cl = label 0
NCCn1cc(NC(=O)c2ccccc2)cn1 = label 0
CC(=O)N1CCN(C(=O)c2ccc(-c3ccc(F)cc3)cc2F)CC1 = label 0
Cc1ccc(C(=O)NCC#Cc2ccccc2)cn1 = label 0

(Q) Assess whether reported intrinsic clearance, rat liver microsomes for CC(C)c1noc2nc(C3CC3)cc(C(=O)N3CC[C@H](N)C3)c12 sits at 300 mL/min/kg or higher.
(A) label 0

(Q) Assess whether reported intrinsic clearance, rat liver microsomes for Cc1c(C(=O)Nc2ccc(CO)cc2)nnn1Cc1ccc(Cl)c(Cl)c1 sits at 300 mL/min/kg or higher.
(A) label 0

(Q) Assess whether reported intrinsic clearance, rat liver microsomes for C[C@@H]1Cc2ccccc2N1C(=O)Cn1nc(-c2cccc3ncccc23)oc1=O sits at 300 mL/min/kg or higher.
(A) label 1

(Q) Assess whether reported intrinsic clearance, rat liver microsomes for CC(C)C(=O)N1CCC(Nc2ncnc3ccsc23)CC1 sits at 300 mL/min/kg or higher.
(A) label 0

(Q) Assess whether reported intrinsic clearance, rat liver microsomes for O=C1NCCCCC1NC(=O)N1CCc2sccc2C1 (stereo unspecified) sits at 300 mL/min/kg or higher.
(A) label 0

(Q) Assess whether reported intrinsic clearance, rat liver microsomes for Fc1ccc(F)c(-c2nc(C3CCOCC3)nn2-c2cccnc2)c1 sits at 300 mL/min/kg or higher.
(A) label 0

(Q) Assess whether reported intrinsic clearance, rat liver microsomes for O=C(c1ccccc1N1CCOCC1)N(Cc1ccccn1)C1CCCCC1 sits at 300 mL/min/kg or higher.
(A) label 1

(Q) Assess whether reported intrinsic clearance, rat liver microsomes for CC(=O)NCCCOc1ccc(CN2C[C@H](Oc3cccc(C)c3)[C@@H](O)C2)cc1 sits at 300 mL/min/kg or higher.
(A) label 1

(Q) Assess whether reported intrinsic clearance, rat liver microsomes for O=C(CSCCCn1c(=O)[nH]c2ccccc21)N1CCCCC1 sits at 300 mL/min/kg or higher.
(A) label 1

(Q) Assess whether reported intrinsic clearance, rat liver microsomes for CCCN(CCc1cccs1)[C@H]1CCc2c(O)cccc2C1 sits at 300 mL/min/kg or higher.
(A) label 1

(Q) Assess whether reported intrinsic clearance, rat liver microsomes for CC(=O)NCc1ncc(-c2ccccc2C(=O)O)cn1 sits at 300 mL/min/kg or higher.
(A) label 0

(Q) Assess whether reported intrinsic clearance, rat liver microsomes for CCc1c(C)nn(CCNC(=O)CCc2cnccn2)c1C sits at 300 mL/min/kg or higher.
(A) label 1

(Q) Assess whether reported intrinsic clearance, rat liver microsomes for CCN(c1cc(-c2ccc(CN3CCOCC3)cc2)cc(C(=O)NCc2c(C)cc(C)nc2O)c1C)C1CCOCC1 sits at 300 mL/min/kg or higher.
(A) label 1

(Q) Assess whether reported intrinsic clearance, rat liver microsomes for Cc1ccc2cc(C(=O)N(C)CCC#N)[nH]c2c1 sits at 300 mL/min/kg or higher.
(A) label 0
